Tested on: RMG-I (Ovarian Carcinoma)
protocol_description: combination Emax (second highest fraction inhibited in the dose matrix, 72 h); higher = more inhibition; extreme values may be limits of the assay
Would you kindly list combination Emax for each of these compounds?
Kindly provide the number alone.

QUERY: Consider the compound CC1(C)CCC(CN2CCN(c3ccc(C(=O)NS(=O)(=O)c4ccc(NCC5CCOCC5)c([N+](=O)[O-])c4)c(Oc4cnc5[nH]ccc5c4)c3)CC2)=C(c2ccc(Cl)cc2)C1 [Venetoclax] + CCN(CCO)CCCOc1ccc2c(Nc3cc(CC(=O)Nc4cccc(F)c4)[nH]n3)ncnc2c1 [AZD2811] (first compound max 1 µM, 7x7, partner max 1 µM) and give its recorded combination Emax.
RESULT: 0.302

QUERY: Consider the compound C=CCn1c(=O)c2cnc(Nc3ccc(N4CCN(C)CC4)cc3)nc2n1-c1cccc(C(C)(C)O)n1 [AZD1775] + CCc1c2c(nc3ccc(O)cc13)-c1cc3c(c(=O)n1C2)COC(=O)[C@]3(O)CC [SN-38] (first compound max 1 µM, partner max 0.3 µM) and give its recorded combination Emax.
RESULT: 0.524

QUERY: Consider the compound COc1cccc(OCCCN)c1-c1cc(Nc2cnc(C#N)cn2)n[nH]1 [Prexasertib] + CCc1c2c(nc3ccc(O)cc13)-c1cc3c(c(=O)n1C2)COC(=O)[C@]3(O)CC [SN-38] (first compound max 1 µM, 7x7, partner max 0.3 µM) and give its recorded combination Emax.
RESULT: 0.505

QUERY: Consider the compound COc1cccc(OCCCN)c1-c1cc(Nc2cnc(C#N)cn2)n[nH]1 [Prexasertib] + CN(C)CCCOc1ccc(-c2ccc3ncc4c(c3c2)n(C2CCOCC2)c(=O)n4C)cn1 [AZD0156] (first compound max 1 µM, 7x7, partner max 1 µM) and give its recorded combination Emax.
RESULT: 0.698

Entry source: the supplement of paper PMC11061612
